src = patent US8871753B2

Parameter IC50: see the listing below.
biological target: human JAK1 (a.a. 837-1142) (Homo sapiens, UniProt P23458); construct: human JAK1 (a.a. 837-1142); His tag (N); made in house; host or cells: insect cells (baculovirus); assay: In vitro JAK kinase assay (HTRF, phosphorylation of a biotinylated peptide), JAK1; assay type: biochemical; conditions: method AA1 (90 μM ATP) or AA2 (1000 μM ATP), not stated per value; read-out: JAK1 IC50
Sequence (P23458 849-1154): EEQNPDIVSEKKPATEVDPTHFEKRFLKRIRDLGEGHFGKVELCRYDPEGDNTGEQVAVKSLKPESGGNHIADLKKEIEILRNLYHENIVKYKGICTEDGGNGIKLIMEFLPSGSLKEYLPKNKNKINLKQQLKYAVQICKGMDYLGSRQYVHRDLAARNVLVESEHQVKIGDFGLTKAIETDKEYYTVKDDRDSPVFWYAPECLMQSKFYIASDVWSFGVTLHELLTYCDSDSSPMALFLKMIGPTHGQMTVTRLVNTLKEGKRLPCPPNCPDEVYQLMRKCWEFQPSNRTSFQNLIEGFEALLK
Structures can show the parent of a compound that is named as a salt.

{"MOLECULE": "CC(Oc1ccc2cc1CCc1cccc(c1)Nc1ncc(Cl)c(n1)N2)C(=O)Nc1ccccc1 (stereo not drawn) [Example A16, trifluoroacetate]", "IC50, nM": 12}
{"MOLECULE": "O=C(Nc1ccc2cc1CCc1cccc(c1)Nc1ncc(Cl)c(n1)N2)[C@@H]1CCN(C(=O)c2ccccc2)C1 [Example A52, trifluoroacetate]", "IC50, nM": 2.2}
{"MOLECULE": "O=C(CC1CCN(C(=O)Nc2ccccc2)CC1)Nc1ccc2cc1CCc1cccc(c1)Nc1ncc(Cl)c(n1)N2 [Example A58, trifluoroacetate]", "IC50, nM": 0.2}
